Ref: patent US12331022B2

- target-system: human α7 nAChR (Homo sapiens, UniProt P36544)
- Construct: host or cells: HEK
- Sequence (P36544 23-502): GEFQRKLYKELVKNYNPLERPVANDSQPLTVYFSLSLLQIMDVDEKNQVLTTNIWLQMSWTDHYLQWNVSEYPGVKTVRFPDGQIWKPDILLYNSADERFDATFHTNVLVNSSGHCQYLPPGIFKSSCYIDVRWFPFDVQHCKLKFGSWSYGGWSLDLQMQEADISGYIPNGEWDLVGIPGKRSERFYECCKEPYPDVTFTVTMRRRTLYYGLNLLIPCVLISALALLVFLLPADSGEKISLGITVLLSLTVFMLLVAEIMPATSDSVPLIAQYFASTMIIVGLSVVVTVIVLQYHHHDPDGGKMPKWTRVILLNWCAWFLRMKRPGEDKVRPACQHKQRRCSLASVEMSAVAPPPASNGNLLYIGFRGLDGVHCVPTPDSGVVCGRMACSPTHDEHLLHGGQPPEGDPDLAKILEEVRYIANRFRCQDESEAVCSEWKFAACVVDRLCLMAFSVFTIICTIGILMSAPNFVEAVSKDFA
- protocol-text: Automated patch-clamp electrophysiology functional assay (Assay A)
- Assay type: cell-based
- test-parameters: HEK cell line stably expressing human RIC-3 and human α7; IonFlux HT whole-cell population patch; with or without 40 μM acetylcholine; read-out: α7 nAChR EC50
Could you please report measured log10(EC50) for the items listed next?
Recorded EC50 (log10, nM)

NS(=O)(=O)N1CCC2(CC1)C(COc1noc(-c3ccccc3)n1)C2(F)F (single isomer, unassigned) [Example A21]; 3.04

Provide log10(EC50) for all items below, preserving their order.
1. COc1ccc(OC[C@@H]2CC23CCN(S(N)(=O)=O)CC3)c(OC)n1 [Example A1]
2. NS(=O)(=O)N1CCC2(CC1)CC2COc1ccc(F)cc1C(F)(F)F (single isomer, unassigned) [Example A7]

(A)
1: 3.79; 2: 3.08

Please state, for each entry, its recorded log10(EC50).
1. COc1ccc(Cl)cc1OCC1C(F)(F)C12CCN(S(N)(=O)=O)CC2 (single isomer, unassigned) [Example A3]
2. NS(=O)(=O)N1CCC2(CC1)C[C@H]2COc1cccc(OCC2CC2)n1 [Example A17]
3. COc1cc(OC[C@H]2CC23CCN(S(N)(=O)=O)CC3)ccc1F [Example A5]

(A)
[3.11, 2.11, 3.79]
